Target: EGFR del19/C797S (Homo sapiens, UniProt P00533, C797S/DEL746-750)
Sequence (P00533 with tags, fused parts or gaps DEL746-750/C797S): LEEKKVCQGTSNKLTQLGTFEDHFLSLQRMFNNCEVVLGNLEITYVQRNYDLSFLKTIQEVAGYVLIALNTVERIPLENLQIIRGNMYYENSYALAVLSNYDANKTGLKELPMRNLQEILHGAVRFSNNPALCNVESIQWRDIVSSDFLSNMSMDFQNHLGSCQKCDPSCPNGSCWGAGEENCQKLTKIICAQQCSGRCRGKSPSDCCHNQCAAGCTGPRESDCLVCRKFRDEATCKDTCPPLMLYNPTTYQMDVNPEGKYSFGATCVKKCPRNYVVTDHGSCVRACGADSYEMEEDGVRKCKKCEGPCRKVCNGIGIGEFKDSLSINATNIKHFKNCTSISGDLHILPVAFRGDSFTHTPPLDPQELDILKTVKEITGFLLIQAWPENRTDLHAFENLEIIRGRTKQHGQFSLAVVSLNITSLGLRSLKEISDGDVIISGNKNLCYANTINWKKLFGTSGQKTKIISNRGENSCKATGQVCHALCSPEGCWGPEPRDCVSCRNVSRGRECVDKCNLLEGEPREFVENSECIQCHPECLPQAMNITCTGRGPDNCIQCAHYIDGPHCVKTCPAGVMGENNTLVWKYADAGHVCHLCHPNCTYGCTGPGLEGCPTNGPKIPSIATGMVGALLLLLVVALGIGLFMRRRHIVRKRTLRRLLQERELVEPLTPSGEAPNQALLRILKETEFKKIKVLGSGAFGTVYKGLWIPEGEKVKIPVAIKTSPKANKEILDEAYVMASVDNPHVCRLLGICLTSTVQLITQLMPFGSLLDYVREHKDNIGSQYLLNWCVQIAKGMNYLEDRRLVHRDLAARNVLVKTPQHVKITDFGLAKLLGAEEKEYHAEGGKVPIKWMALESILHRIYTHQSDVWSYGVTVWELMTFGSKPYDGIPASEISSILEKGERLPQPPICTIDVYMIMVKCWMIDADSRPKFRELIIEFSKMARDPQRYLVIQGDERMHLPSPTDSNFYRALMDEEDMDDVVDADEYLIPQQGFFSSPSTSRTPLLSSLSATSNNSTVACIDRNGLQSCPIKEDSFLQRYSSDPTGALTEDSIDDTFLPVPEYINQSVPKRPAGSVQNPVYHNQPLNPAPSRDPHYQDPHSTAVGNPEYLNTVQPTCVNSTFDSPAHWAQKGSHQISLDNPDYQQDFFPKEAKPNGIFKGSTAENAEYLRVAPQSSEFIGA
Assay: Biochemical EGFR kinase assay (Lance Ultra TR-FRET), double mutant del19/C797S
Conditions: Km ATP; read-out: IC50 del19/C797S (nM) Km ATP

{"MOLECULE": "Cn1ccc(-c2cnc(Nc3ccnc(-c4cnn(S(=O)(=O)C5CC5)c4)n3)cc2NC[C@H]2C[C@H](CO)C2)n1", "TARGET_OF_ASSAY": "EGFR del19/C797S (Homo sapiens, UniProt P00533, C797S/DEL746-750)", "IC50, nM": 0.3}
{"MOLECULE": "O=S(=O)(C1CC1)n1cc(-c2nccc(Nc3cc(N[C@H]4CC[C@@H](CN5CCC5)CC4)c(-c4ccn(CC(F)(F)F)n4)cn3)n2)cn1", "TARGET_OF_ASSAY": "EGFR del19/C797S (Homo sapiens, UniProt P00533, C797S/DEL746-750)", "IC50, nM": 23.9}
{"MOLECULE": "Cn1nc(-c2cnc(Nc3ccnc(-c4cnn(S(=O)(=O)C5CC5)c4)n3)cc2N[C@H]2CCC[C@H](CO)C2)cc1C(F)(F)F", "TARGET_OF_ASSAY": "EGFR del19/C797S (Homo sapiens, UniProt P00533, C797S/DEL746-750)", "IC50, nM": 5}
{"MOLECULE": "Cn1nc(-c2cnc(Nc3ccnc(-c4cnn(S(=O)(=O)C5CC5)c4)n3)cc2N[C@H]2CC[C@H](CCO)CC2)cc1C(F)(F)F", "TARGET_OF_ASSAY": "EGFR del19/C797S (Homo sapiens, UniProt P00533, C797S/DEL746-750)", "IC50, nM": 15.5}
{"MOLECULE": "CC1(O)CCC(Oc2cc(Nc3ccnc(-c4cnn(S(=O)(=O)C5CC5)c4)n3)ncc2-c2ccn(C(F)F)n2)CC1 (stereo not shown)", "TARGET_OF_ASSAY": "EGFR del19/C797S (Homo sapiens, UniProt P00533, C797S/DEL746-750)", "IC50, nM": 7.3}
{"MOLECULE": "Cn1nc(-c2cnc(Nc3ccnc(-c4cnn(CC(F)F)c4)n3)cc2NN2CCC(O)CC2)cc1C(F)(F)F", "TARGET_OF_ASSAY": "EGFR del19/C797S (Homo sapiens, UniProt P00533, C797S/DEL746-750)", "IC50, nM": 55.3}
{"MOLECULE": "O=S(=O)(C1CC1)n1cc(-c2nccc(Nc3cc(NC4CCC(CCF)CC4)c(-c4ccn(C(F)F)n4)cn3)n2)cn1 (stereo not shown)", "TARGET_OF_ASSAY": "EGFR del19/C797S (Homo sapiens, UniProt P00533, C797S/DEL746-750)", "IC50, nM": 119}
{"MOLECULE": "COc1ncc(-c2nccc(Nc3cc(N[C@H]4CC[C@@](C)(O)CC4)c(-c4ccn(C(F)F)n4)cn3)n2)cc1F", "TARGET_OF_ASSAY": "EGFR del19/C797S (Homo sapiens, UniProt P00533, C797S/DEL746-750)", "IC50, nM": 102}
{"MOLECULE": "O=S(=O)(C1CC1)n1cc(-c2nccc(Nc3cc(N[C@H]4CC[C@@H](CO)CC4)c(-c4cc5n(n4)CCCC5)cn3)n2)cn1", "TARGET_OF_ASSAY": "EGFR del19/C797S (Homo sapiens, UniProt P00533, C797S/DEL746-750)", "IC50, nM": 1.1}
{"MOLECULE": "O=S(=O)(C1CC1)n1cc(-c2nccc(Nc3cc(N[C@H]4CC[C@@H](NCCF)CC4)c(-c4csc(N5CCOCC5)n4)cn3)n2)cn1", "TARGET_OF_ASSAY": "EGFR del19/C797S (Homo sapiens, UniProt P00533, C797S/DEL746-750)", "IC50, nM": 21}
{"MOLECULE": "Cn1nc(-c2cnc(Nc3ccnc(-c4cnn(S(=O)(=O)C5CC5)c4)n3)cc2N[C@H]2CC[C@@H](C(C)(C)O)CC2)cc1C(C)(C)O", "TARGET_OF_ASSAY": "EGFR del19/C797S (Homo sapiens, UniProt P00533, C797S/DEL746-750)", "IC50, nM": 1}
{"MOLECULE": "C[C@]1(O)CC[C@@H](Nc2cc(Nc3ccnc(Nc4ccnn4CC(F)F)n3)ncc2-c2ccn(C(F)F)n2)CC1", "TARGET_OF_ASSAY": "EGFR del19/C797S (Homo sapiens, UniProt P00533, C797S/DEL746-750)", "IC50, nM": 162}
{"MOLECULE": "Cc1nn(CC(F)(F)F)cc1-c1nccc(Nc2cc(N[C@H]3CC[C@@](C)(O)CC3)c(-c3ccn(C(F)F)n3)cn2)n1", "TARGET_OF_ASSAY": "EGFR del19/C797S (Homo sapiens, UniProt P00533, C797S/DEL746-750)", "IC50, nM": 3.9}
